Listed next: entries and their corresponding APOE RNA (% UTC).
# Tested on: human APOE RNA
# ASSAY PROTOCOL: Dose-dependent inhibition of human APOE RNA in HepG2 cells, electroporation, 24 hours (Example 6)
# Assay type: cell-based
# CONDITIONS USED: 205 nM
# Method: Modified oligonucleotides selected from the examples above were tested at various doses in HepG2. HepG2 cells plated at a density of 50,000 cells per well were treated by electroporation with various concentrations of modified oligonucleotide as specified in the tables below. […] APOE RNA levels were measured using the human primer probe set RTS3073 (described herein above). APOE RNA levels were normalized to human GAPDH. […]
Strand notation (5' to 3'): a small letter for the sugar, then the base; units joined by * are phosphorothioate-linked, units joined directly phosphodiester-linked; [ ] holds rarer units or linkages, { } end groups; capitals alone tell only the bases. [ms] = mesyl phosphoramidate linkage; e = 2'-O-(2-methoxyethyl) (MOE); [5mC] = 5-methylcytosine; d = 2'-deoxy (DNA)

[[record]]
substance = "1693101: 6-10-4 MOE gapmer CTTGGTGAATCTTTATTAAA, linkages sssssozzzssssszssss (e[5mC]*eT*eT*eG*eG*eTdG[ms]dA[ms]dA[ms]dT*d[5mC]*dT*dT*dT*dA[ms]dT*eT*eA*eA*eA) [compound 1693101]"
measured_on = "human APOE RNA"
value_observed = "95 % UTC"

[[record]]
substance = "1736519: 6-10-4 MOE gapmer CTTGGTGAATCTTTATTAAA, linkages sososszzzssssssssss (e[5mC]*eTeT*eGeG*eT*dG[ms]dA[ms]dA[ms]dT*d[5mC]*dT*dT*dT*dA*dT*eT*eA*eA*eA) [compound 1736519]"
measured_on = "human APOE RNA"
value_observed = "53 % UTC"


# evaluate next
QUERY: Looking for the measured APOE RNA (% UTC) of 1736522: 6-10-4 MOE gapmer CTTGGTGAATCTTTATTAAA, linkages sooosszzssssssssoss (e[5mC]*eTeTeGeG*eT*dG[ms]dA[ms]dA*dT*d[5mC]*dT*dT*dT*dA*dT*eTeA*eA*eA) [compound 1736522] , can you help?
RESULT: 67 % UTC

====

# Test system: human APOE RNA
# ASSAY PROTOCOL: Dose-dependent inhibition of human APOE RNA in HepG2 cells, electroporation, 50,000 cells per well, RT-PCR normalized to GAPDH (Example 4, Tables 8-10)
# Type: cell-based
# CONDITIONS USED: 82 nM; HepG2, electroporation, 16-hour treatment
Strand notation (5' to 3'): a small letter for the sugar, then the base; units joined by * are phosphorothioate-linked, units joined directly phosphodiester-linked; [ ] holds rarer units or linkages, { } end groups; capitals alone tell only the bases. e = 2'-O-(2-methoxyethyl) (MOE); k = constrained ethyl (cEt); [5mC] = 5-methylcytosine; d = 2'-deoxy (DNA)
REPORTED ENDPOINT: APOE RNA (% UTC)
Dear colleague, please return just the value in % UTC, with no unit written.

[[record]]
substance = "1757556: mixed MOE/cEt gapmer TTGGTGAATCTTTATTAA, sugar eeeeeddddddddekkee, linkages soossssssssssooss (eT*eTeGeG*eT*dG*dA*dA*dT*d[5mC]*dT*dT*dT*eAkTkT*eA*eA) [compound 1757556]"
quantity_unit = "% UTC"
value_observed = 103

[[record]]
substance = "1757551: mixed MOE/cEt gapmer TTGGTGAATCTTTATTAA, sugar eeekkddddddddeeeee, linkages soossssssssssooss (eT*eTeGkG*kT*dG*dA*dA*dT*d[5mC]*dT*dT*dT*eAeTeT*eA*eA) [compound 1757551]"
quantity_unit = "% UTC"
value_observed = 55

[[record]]
substance = "1757544: mixed MOE/cEt gapmer TTGGTGAATCTTTATTAA, sugar ekeeeddddddddeeeee, linkages soossssssssssooss (eT*kTeGeG*eT*dG*dA*dA*dT*d[5mC]*dT*dT*dT*eAeTeT*eA*eA) [compound 1757544]"
quantity_unit = "% UTC"
value_observed = 111


# evaluate next
QUERY: Find the measured APOE RNA (% UTC): item 1757566 (eA*e[5mC]eTkTkG*dG*dT*dG*dA*dA*dT*d[5mC]*dT*dT*dT*eAeTeT*eA*eA; antisense) [Compound 1757566] , target or system human APOE RNA.
RESULT: 73
